src = patent US8642343B2

experiment: Solubility of polymerization inhibitors at 25° C.; settings: in water
parameterMeasured: Solubility (25° C.) (g/100 ml)

[1] COc1ccc(O)cc1
[2] CC(C)(C)c1cc(O)c(C(C)(C)C)cc1O [Material 2, 2,5-di-t-butylhydroquinone]
Hi! Which is lower in terms of Solubility (25° C.), the first one 1 or the second one 2 ? Returns: label corresponding to the selected item. 2
(2: 0.002 g/100 ml, 1: 4 g/100 ml)
